tested on: K4 kissing-loop RNA reporter; test: apparent KD of K4 kissing-loop reporter; higher = weaker reporter binding; settings: Eterna round: R107; input ligand: FMN 200 uM;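 also: bound reporter read as fluorescence of individual clusters on recovered sequencing chips by microscopy, with normalized cluster intensities fitted with a binding model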
Hi there, I'd appreciate the recorded apparent KD of K4 kissing-loop reporter for every entry that follows.
Numbers only, in nM.

- construct-sequence: "AGAACUGUCUGAGAUACCAGCUAAGGAGUGAUGUUCCGGCUCGACGAAACGUCGAGCCAUAGCCCUUGGCAGCUCAGACAGUUCA [#27 K4 Theophylline B Same State]"
  tested-system: "K4 kissing-loop RNA reporter"
  apparent KD of K4 kissing-loop reporter (nM): 431
- construct-sequence: "GGUGUUGUUUGUGCUGUUUUCCUCGUUCCUCGAGGACCGGUACGGCCGCCACUCGAGUGAUGUUUGGGUAGCGAUCCUUGUUAGU [Bdazzled - #7 Exc. Tryptophan A]"
  tested-system: "K4 kissing-loop RNA reporter"
  apparent KD of K4 kissing-loop reporter (nM): 336

Query: Please give the measured apparent KD of K4 kissing-loop reporter for this sequence: GUGGAAUUAUGAAAGUGGUUUUAUUAGGAAGGAGCGGCCGAAAGGCCAGGUAGGUCGCCUAUUGACAGUGAUGUUGUUAUAUGGU [#14]
Reply: 158
